Target: T1, soluble recombinant human uPAR/His6 (R&D Systems, Cat. # 807-UK-100) (human, UniProt Q03405 23-303)
T1 construct: range 1-303; Bought protein; also called soluble uPAR; hu-uPAR
T1 sequence (Q03405 other isoform, or with tags, fused parts or gaps limits assumed, form in doubt): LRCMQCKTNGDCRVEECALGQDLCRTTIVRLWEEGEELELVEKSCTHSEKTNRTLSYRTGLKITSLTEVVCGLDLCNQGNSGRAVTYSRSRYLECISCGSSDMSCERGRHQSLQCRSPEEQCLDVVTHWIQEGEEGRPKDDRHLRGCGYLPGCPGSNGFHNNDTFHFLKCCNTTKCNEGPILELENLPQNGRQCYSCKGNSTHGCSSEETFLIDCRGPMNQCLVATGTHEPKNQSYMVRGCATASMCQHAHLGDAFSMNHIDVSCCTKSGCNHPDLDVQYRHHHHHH
Experiment: low resolution Biacore, mAb captured by goat anti-human, hu-uPAR 312 nM;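 note: surface plasmon resonance on a CM5 chip with goat anti-human antibody surface made by amine coupling, each mAb from supernatant captured per flow cell, kinetics fitted including mass transport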
measuredEndpoint: pKd
# pKd: negative log10 of molar concentration; output just the value

Sample records with pKd:
anti-uPAR monoclonal antibody 1.41.1 (antibody, V domains shown) VH: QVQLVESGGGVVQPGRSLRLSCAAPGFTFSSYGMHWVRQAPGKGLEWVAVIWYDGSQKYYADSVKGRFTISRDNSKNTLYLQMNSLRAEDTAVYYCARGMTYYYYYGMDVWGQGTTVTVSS VL: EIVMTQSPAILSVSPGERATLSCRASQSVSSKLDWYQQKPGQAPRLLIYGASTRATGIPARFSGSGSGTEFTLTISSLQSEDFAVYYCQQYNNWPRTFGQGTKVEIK    8.41
anti-uPAR monoclonal antibody 1.61.1 (antibody, V domains shown) VH: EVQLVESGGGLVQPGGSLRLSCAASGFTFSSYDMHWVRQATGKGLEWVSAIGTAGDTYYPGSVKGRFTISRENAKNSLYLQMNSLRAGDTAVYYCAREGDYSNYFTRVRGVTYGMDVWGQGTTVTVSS VL: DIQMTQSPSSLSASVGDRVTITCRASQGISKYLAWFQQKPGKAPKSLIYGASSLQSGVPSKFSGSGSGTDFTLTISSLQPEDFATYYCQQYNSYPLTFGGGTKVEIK    8.57

Consider now this further binder.
[Q] I would be grateful if you could share the reported pKd for fully human monoclonal antibody 2.6.1 (ATCC Accession Number PTA-7475) (antibody, V domains shown, also called mAb 2.6.1) VH: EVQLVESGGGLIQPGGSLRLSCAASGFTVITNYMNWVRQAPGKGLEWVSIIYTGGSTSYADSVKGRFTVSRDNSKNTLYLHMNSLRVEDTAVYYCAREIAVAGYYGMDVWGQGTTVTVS VL: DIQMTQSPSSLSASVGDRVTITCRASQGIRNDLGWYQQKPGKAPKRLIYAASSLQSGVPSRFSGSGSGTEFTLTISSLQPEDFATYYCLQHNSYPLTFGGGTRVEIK .
[A] 9.24
